Value source: ChEMBL document CHEMBL4011582

Test Details: clinical
Experimental Parameters: human
Range-based classes on measured Cmax: c1: < 200 nM; c2: ≥ 200 nM and < 4000 nM; c3: ≥ 4000 nM

Quick check: band for CC(C)c1nc(CN(C)C(=O)N[C@H](C(=O)N[C@@H](Cc2ccccc2)C[C@H](O)[C@H](Cc2ccccc2)NC(=O)OCc2cncs2)C(C)C)cs1 [RITONAVIR]
c3

* * *

Test Details: clinical
Experimental Parameters: human
API: label(entry) gives True if the entry's Cmax is strictly smaller than 200 nM; on equality or larger values it gives False.

Please let me know if CN(CCOc1ccc(CC2SC(=O)NC2=O)cc1)c1ccccn1 (centres undefined) shows Cmax below 200 nM.
False

Please let me know if Clc1ccc(COC(Cn2ccnc2)c2ccc(Cl)cc2Cl)cc1 (centres undefined) shows Cmax below 200 nM.
True

Please let me know if `CC(C)(C)NC(=O)[C@@H]1CN(Cc2cccnc2)CCN1C[C@@H](O)C[C@@H](Cc1ccccc1)C(=O)N[C@H]1c2ccccc2C[C@H]1O.O` shows Cmax below 200 nM.
False

Please let me know if `C[N+](C)(C)CC(=O)O` shows Cmax below 200 nM.
False

Please let me know if CCN(CC)CC#CCOC(=O)C(O)(c1ccccc1)C1CCCCC1 (centres undefined) shows Cmax below 200 nM.
True

Please let me know if `CC[C@H]1OC(=O)[C@H](C)C(=O)[C@H](C)[C@@H](O[C@@H]2O[C@H](C)C[C@H](N(C)C)[C@H]2O)[C@](C)(OC)C[C@@H](C)C(=O)[C@H](C)[C@H]2N(CCCCn3cnc(-c4cccnc4)c3)C(=O)O[C@]12C` shows Cmax below 200 nM.
False

Please let me know if `O=c1n(CCCN2CCN(c3cccc(Cl)c3)CC2)nc2ccccn12` shows Cmax below 200 nM.
False

Please let me know if `CS(=O)(=O)CCNCc1ccc(-c2ccc3ncnc(Nc4ccc(OCc5cccc(F)c5)c(Cl)c4)c3c2)o1` shows Cmax below 200 nM.
False

Please let me know if `CC(C)/N=c1\cc2n(-c3ccc(Cl)cc3)c3ccccc3nc-2cc1Nc1ccc(Cl)cc1` shows Cmax below 200 nM.
False

Please let me know if COC(=O)C1=C(C)NC(C)=C(C(=O)OCC(C)C)C1c1ccccc1[N+](=O)[O-] (centres undefined) shows Cmax below 200 nM.
True

Please let me know if `CC(=O)[C@H]1CC[C@H]2[C@@H]3CCC4=CC(=O)CC[C@]4(C)[C@H]3CC[C@]12C` shows Cmax below 200 nM.
True

Please let me know if `Cc1ccc(NC(=O)c2ccc(CN3CCN(C)CC3)cc2)cc1Nc1nccc(-c2cccnc2)n1` shows Cmax below 200 nM.
False

Please let me know if CN(C)C(=O)C(CCN1CCC(O)(c2ccc(Cl)cc2)CC1)(c1ccccc1)c1ccccc1 [LOPERAMIDE] shows Cmax below 200 nM.
True

* * *

Test Details: clinical
Experimental Parameters: human
Outcome: Yes for Cmax of at least 400 nM; No for anything lower.

# example entries with known answers
COc1ccccc1Oc1c(NS(=O)(=O)c2ccc(C(C)(C)C)cc2)nc(-c2ncccn2)nc1OCCO [BOSENTAN]	Yes
Cc1ncc2n1-c1ccc(Cl)cc1C(c1ccccc1F)=NC2 [MIDAZOLAM]	Yes
CCc1nn(CCCN2CCN(c3cccc(Cl)c3)CC2)c(=O)n1CCOc1ccccc1 [NEFAZODONE]	Yes

Please indicate if the recorded Cmax for CCc1ccc(CCOc2ccc(CC3SC(=O)NC3=O)cc2)nc1 (centres undefined) [PIOGLITAZONE] meets or exceeds 400 nM.
Yes

* * *

// reported Cmax for each item listed
Test Details: clinical
Experimental Parameters: human
Just the number in µM, nothing appended.

Take a look at these entries with their results.
CCC1=C(C)CN(C(=O)NCCc2ccc(S(=O)(=O)NC(=O)N[C@H]3CC[C@H](C)CC3)cc2)C1=O [GLIMEPIRIDE]	1.12
CC(C)OC(=O)C(C)(C)Oc1ccc(C(=O)c2ccc(Cl)cc2)cc1 [FENOFIBRATE]	12.1

For `CCCCC1=NC2(CCCC2)C(=O)N1Cc1ccc(-c2ccccc2-c2nnn[nH]2)cc1` , what is its reported Cmax?
3.5

For `CCCCc1nc(Cl)c(CO)n1Cc1ccc(-c2ccccc2-c2nnn[nH]2)cc1` , what is its reported Cmax?
0.651

For `COc1cc2ncnc(Nc3ccc(F)c(Cl)c3)c2cc1OCCCN1CCOCC1` , what is its reported Cmax?
0.356

For CN(C)CCC(c1ccc(Br)cc1)c1ccccn1 (stereo not given) , what is its reported Cmax?
0.036

For CC(C)n1c(/C=C/C(O)CC(O)CC(=O)O)c(-c2ccc(F)cc2)c2ccccc21 (stereo not given) , what is its reported Cmax?
0.663

For `CC(C)CN(C[C@@H](O)[C@H](Cc1ccccc1)NC(=O)O[C@H]1CCOC1)S(=O)(=O)c1ccc(N)cc1` , what is its reported Cmax?
15.2

For O=C1C(CC[S+]([O-])c2ccccc2)C(=O)N(c2ccccc2)N1c1ccccc1 (stereo not given) , what is its reported Cmax?
44.2

For `CN[C@@H]1[C@H](O[C@H]2[C@H](O[C@H]3[C@H](O)[C@@H](O)[C@H](N=C(N)N)[C@@H](O)[C@@H]3N=C(N)N)O[C@@H](C)[C@]2(O)C=O)O[C@@H](CO)[C@H](O)[C@H]1O` , what is its reported Cmax?
64.5

* * *

Test Details: clinical
Experimental Parameters: human
Metric Name: Cmax

CN1CCN(CCCN2c3ccccc3Sc3ccc(C(F)(F)F)cc32)CC1	5.3 nM
CC(C)(C)NC(=O)[C@@H]1C[C@@H]2CCCC[C@@H]2CN1C[C@@H](O)[C@H](Cc1ccccc1)NC(=O)[C@H](CC(N)=O)NC(=O)c1ccc2ccccc2n1	3360 nM
CCc1oc2ccccc2c1C(=O)c1cc(Br)c(O)c(Br)c1	4340 nM
Nc1nc(=O)c2nc(CNc3ccc(C(=O)N[C@@H](CCC(=O)O)C(=O)O)cc3)cnc2[nH]1	135 nM
CC(COc1ccccc1)N(CCCl)Cc1ccccc1 (stereo not given)	197 nM

For C#C[C@]1(OC(C)=O)CC[C@H]2[C@@H]3CCC4=C[C@@H](OC(C)=O)CC[C@@H]4[C@H]3CC[C@@]21C [ETHYNODIOL DIACETATE] , what is its reported Cmax?
29 nM

For `N[C@@H](Cc1cc(I)c(Oc2ccc(O)c(I)c2)c(I)c1)C(=O)O` , what is its reported Cmax?
108 nM

For `COc1cc(C(=O)NS(=O)(=O)c2ccccc2C)ccc1Cc1cn(C)c2ccc(NC(=O)OC3CCCC3)cc12` , what is its reported Cmax?
1210 nM

* * *

// reported Cmax for each item listed
Test Details: clinical
Experimental Parameters: human
Just the number in nM, nothing appended.

Take a look at these entries with their results.
Clc1ccccc1C(c1ccccc1)(c1ccccc1)n1ccnc1	87
CC(O)(CS(=O)(=O)c1ccc(F)cc1)C(=O)Nc1ccc(C#N)c(C(F)(F)F)c1 (configuration not stated) [BICALUTAMIDE]	1970
CCCc1nc2c(C)cc(-c3nc4ccccc4n3C)cc2n1Cc1ccc(-c2ccccc2C(=O)O)cc1	851
CC(C)(C)NC(=O)[C@H]1CC[C@H]2[C@@H]3CC[C@H]4NC(=O)C=C[C@]4(C)[C@H]3CC[C@]12C [FINASTERIDE]	99

For `CC[C@H](C)C(=O)O[C@H]1C[C@@H](C)C=C2C=C[C@H](C)[C@H](CC[C@@H]3C[C@@H](O)CC(=O)O3)[C@H]21` , what is its reported Cmax?
25

For `C[C@@H]1C[C@H]2[C@@H]3CCC4=CC(=O)C=C[C@]4(C)[C@@]3(Cl)[C@@H](O)C[C@]2(C)[C@@]1(O)C(=O)CCl` , what is its reported Cmax?
0.3

For Cc1c(C)c2c(c(C)c1O)CCC(C)(COc1ccc(CC3SC(=O)NC3=O)cc1)O2 (configuration not stated) , what is its reported Cmax?
6390
